Listed molecules paired with reported log10 of IC50
tested on: cAMP-specific 3',5'-cyclic phosphodiesterase 4A (Homo sapiens)
test description: PDE4A Inhibition Assay
study conditions: pH 7.2; 22 °C
A value of 2 here means IC50 of 100 in µM, since values are log10.

> print(dat)
                            chemical.string  observed.value
1  COc1ccc(-c2nnc3n2N=C(c2ccccc2OC)CS3)cc1OC            0.95

Entry "COc1cccc(C2=Nn3c(nnc3-c3ccccc3OC)SC2)c1" : log10 of IC50 on cAMP-specific 3',5'-cyclic phosphodiesterase 4A (Homo sapiens) = 1.08

Entry "COc1cccc(-c2nnc3n2N=C(c2ccc(OC)c(OC)c2)CS3)c1" : log10 of IC50 on cAMP-specific 3',5'-cyclic phosphodiesterase 4A (Homo sapiens) = -0.90

Entry "COc1ccccc1C1=Nn2c(nnc2-c2ccccc2C)SC1" : log10 of IC50 on cAMP-specific 3',5'-cyclic phosphodiesterase 4A (Homo sapiens) = 1.15

Entry "COc1ccc(-c2nnc3n2N=C(c2ccc(OC)c(OC)c2)CS3)c(OC)c1" : log10 of IC50 on cAMP-specific 3',5'-cyclic phosphodiesterase 4A (Homo sapiens) = -1.10

Entry "COc1cccc(C2=Nn3c(nnc3-c3cccc(OC)c3)SC2)c1" : log10 of IC50 on cAMP-specific 3',5'-cyclic phosphodiesterase 4A (Homo sapiens) = 1.10

###

tested on: cAMP-specific 3',5'-cyclic phosphodiesterase 4A (Homo sapiens)
test description: PDE4A Inhibition Assay
study conditions: pH 7.2; 22 °C
measured quantity: pIC50
Quick note: pIC50 means taking -log10 of the concentration in moles per liter.

Reference set (2 entries):
> print(dat)
                            chemical.string  measured.quantity  observed.value
1  COc1ccc(-c2nnc3n2N=C(c2ccccc2OC)CS3)c(OC)c1              pIC50            4.71
2  COc1ccc(-c2nnc3n2N=C(c2ccc(OC)c(OC)c2)CS3)cc1              pIC50            7.05

Record summary for "COc1ccc(-c2nnc3n2N=C(c2ccccc2OC)CS3)cc1" : reported pIC50 = 4.85

Record summary for "COc1cccc(C2=Nn3c(nnc3-c3cc(OC)ccc3OC)SC2)c1" : reported pIC50 = 5.10

###

tested on: cAMP-specific 3',5'-cyclic phosphodiesterase 4A (Homo sapiens, UniProt P27815)
Sequence (P27815 whole entry): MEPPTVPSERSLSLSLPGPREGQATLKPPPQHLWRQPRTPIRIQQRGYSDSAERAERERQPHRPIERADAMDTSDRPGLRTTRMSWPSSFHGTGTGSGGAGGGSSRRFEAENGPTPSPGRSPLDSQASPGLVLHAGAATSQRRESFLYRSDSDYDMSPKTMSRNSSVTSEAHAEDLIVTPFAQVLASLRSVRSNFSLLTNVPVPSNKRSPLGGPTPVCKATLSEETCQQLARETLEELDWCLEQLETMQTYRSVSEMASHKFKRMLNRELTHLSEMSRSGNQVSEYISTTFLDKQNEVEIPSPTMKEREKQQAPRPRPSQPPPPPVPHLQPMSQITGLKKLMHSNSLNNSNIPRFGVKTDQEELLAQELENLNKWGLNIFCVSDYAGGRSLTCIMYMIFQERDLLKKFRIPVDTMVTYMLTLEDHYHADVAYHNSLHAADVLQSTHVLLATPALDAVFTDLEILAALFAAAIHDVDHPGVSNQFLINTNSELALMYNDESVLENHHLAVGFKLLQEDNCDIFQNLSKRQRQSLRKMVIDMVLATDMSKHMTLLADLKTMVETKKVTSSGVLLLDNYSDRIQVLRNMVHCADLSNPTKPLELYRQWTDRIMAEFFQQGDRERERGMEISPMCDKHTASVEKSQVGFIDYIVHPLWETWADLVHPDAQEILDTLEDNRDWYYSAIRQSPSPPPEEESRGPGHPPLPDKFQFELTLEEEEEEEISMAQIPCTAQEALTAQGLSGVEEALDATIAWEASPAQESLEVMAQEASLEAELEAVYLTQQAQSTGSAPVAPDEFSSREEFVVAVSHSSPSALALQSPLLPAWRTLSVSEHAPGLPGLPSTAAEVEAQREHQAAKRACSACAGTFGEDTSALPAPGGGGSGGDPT
test description: PDE4A Inhibition Assay
study conditions: pH 7.2; 22 °C
Listed compounds paired with reported IC50
# number only, unit µM dropped from output

> print(dat)
                            chemical.string  measured.quantity  observed.value
1  COc1cc(OC)cc(-c2nnc3n2N=C(c2ccc(OC)c(OC)c2)CS3)c1               IC50            0.05
2     COc1ccccc1C1=Nn2c(nnc2-c2ccccc2OC)SC1               IC50              20
3   COc1cccc(-c2nnc3n2N=C(c2ccccc2OC)CS3)c1               IC50            13.4
4  COc1ccc(C2=Nn3c(nnc3-c3ccc(OC)c(OC)c3)SC2)cc1OC               IC50           0.177
5  COc1cccc(C2=Nn3c(nnc3-c3ccc(OC)c(OC)c3)SC2)c1               IC50               9

Now for the compound whose IC50 we want.
Record summary for "COc1cc(OC)cc(-c2nnc3n2N=C(c2ccccc2OC)CS3)c1" : reported IC50 = 13.4

###

tested on: cAMP-specific 3',5'-cyclic phosphodiesterase 4A (Homo sapiens, UniProt P27815)
test description: PDE4A Inhibition Assay
Listed compounds paired with reported pIC50
Quick note: pIC50 means taking -log10 of the concentration in moles per liter.

Record summary for COc1ccc(OC)c(C2=Nn3c(nnc3-c3cccc(OC)c3OC)SC2)c1 [triazolothiadiazine, 10D] : reported pIC50 = 4.92

Record summary for COc1ccc(-c2nnc3n2N=C(c2c(OC)cccc2OC)CS3)cc1OC [triazolothiadiazine, 11G] : reported pIC50 = 4.85

Record summary for COc1ccc(OC)c(C2=Nn3c(nnc3-c3cc(OC)ccc3OC)SC2)c1 [triazolothiadiazine, 10F] : reported pIC50 = 4.92

Record summary for "COc1ccc(C2=Nn3c(nnc3-c3ccc(OC)cc3)SC2)cc1" : reported pIC50 = 5.08

###

tested on: cAMP-specific 3',5'-cyclic phosphodiesterase 4A (Homo sapiens, UniProt P27815)
test description: PDE4A Inhibition Assay
study conditions: pH 7.2; 22 °C
Listed molecules paired with reported IC50
# number only, unit µM dropped from output

> print(dat)
                            chemical.string  observed.value
1  COc1ccc(-c2nnc3n2N=C(c2cccc(OC)c2)CS3)cc1             8.4
2  COc1cccc(C2=Nn3c(nnc3-c3ccc(OC)cc3OC)SC2)c1            13.4
3  COc1ccc(OC)c(-c2nnc3n2N=C(c2ccccc2OC)CS3)c1            19.6

Now for the molecule whose IC50 we want.
Record summary for "COc1cccc(C2=Nn3c(nnc3-c3cc(OC)cc(OC)c3)SC2)c1" : reported IC50 = 13.4

###

Listed molecules paired with reported pIC50
tested on: cAMP-specific 3',5'-cyclic phosphodiesterase 4A (Homo sapiens, UniProt P27815)
test description: PDE4A Inhibition Assay
Quick note: pIC50 means taking -log10 of the concentration in moles per liter.

> print(dat)
                                   molecule  observed.value
1  COc1ccc(C2=Nn3c(nnc3-c3cc(OC)cc(OC)c3)SC2)cc1            5.02
2  COc1ccc(C2=Nn3c(nnc3-c3cc(OC)ccc3OC)SC2)c(OC)c1            5.12
3  COc1ccc(C2=Nn3c(nnc3-c3ccc(OC)c(OC)c3)SC2)cc1            5.12

Now for the molecule whose pIC50 we want.
Record summary for COc1ccc(-c2nnc3n2N=C(c2cc(OC)ccc2OC)CS3)c(OC)c1 [triazolothiadiazine, 10E] : reported pIC50 = 5.28

###

Listed molecules paired with reported pIC50
tested on: cAMP-specific 3',5'-cyclic phosphodiesterase 4A (Homo sapiens, UniProt P27815)
test description: PDE4A Inhibition Assay
Quick note: pIC50 means taking -log10 of the concentration in moles per liter.

Reference set (2 entries):
> print(dat)
                                   molecule                                 tested.on  observed.value
1  COc1ccc(C2=Nn3c(nnc3-c3cccc(OC)c3)SC2)cc1 [triazolothiadiazine, 8B]  cAMP-specific 3',5'-cyclic phosphodiesterase 4A (Homo sapiens, UniProt P27815)            4.90
2  COc1ccc(OC)c(C2=Nn3c(nnc3-c3ccc(OC)c(OC)c3)SC2)c1 [triazolothiadiazine, 10G]  cAMP-specific 3',5'-cyclic phosphodiesterase 4A (Homo sapiens, UniProt P27815)            5.16

Record summary for COc1ccc(OC)c(C2=Nn3c(nnc3-c3ccccc3C)SC2)c1 [triazolothiadiazine, 10I] : reported pIC50 = 5.20

Record summary for COc1cccc(OC)c1C1=Nn2c(nnc2-c2ccccc2C)SC1 [triazolothiadiazine, 11I] : reported pIC50 = 4.85

Record summary for COc1cccc(C2=Nn3c(nnc3-c3ccccc3C)SC2)c1 [triazolothiadiazine, 7I] : reported pIC50 = 5.49

Record summary for COc1ccc(C2=Nn3c(nnc3-c3ccc(OC)c(OC)c3)SC2)c(OC)c1 [triazolothiadiazine, 9G] : reported pIC50 = 5.17

Record summary for COc1ccc(-c2nnc3n2N=C(c2c(OC)cccc2OC)CS3)cc1 [triazolothiadiazine, 11C] : reported pIC50 = 4.71

###

tested on: cAMP-specific 3',5'-cyclic phosphodiesterase 4A (Homo sapiens)
test description: PDE4A Inhibition Assay
Listed compounds paired with reported IC50
# number only, unit µM dropped from output

> print(dat)
                                   compound   u  observed.value
1  COc1cccc(-c2nnc3n2N=C(c2cc(OC)ccc2OC)CS3)c1  µM            12.6

Record summary for COc1ccc(OC)c(C2=Nn3c(nnc3-c3ccccc3OC)SC2)c1 [triazolothiadiazine, 10A] : reported IC50 = 8.9

###

tested on: cAMP-specific 3',5'-cyclic phosphodiesterase 4A (Homo sapiens, UniProt P27815)
test description: PDE4A Inhibition Assay
Listed molecules paired with reported pIC50
Quick note: pIC50 means taking -log10 of the concentration in moles per liter.

> print(dat)
                                   molecule  measured.quantity  observed.value
1    COc1ccc(C2=Nn3c(nnc3-c3ccccc3C)SC2)cc1              pIC50            4.90
2  COc1cccc(-c2nnc3n2N=C(c2ccc(OC)cc2OC)CS3)c1              pIC50            4.85
3    COc1cccc(C2=Nn3c(nnc3-c3ccccc3O)SC2)c1              pIC50            4.85

Now for the molecule whose pIC50 we want.
Record summary for "CCOc1ccccc1-c1nnc2n1N=C(c1cccc(OC)c1)CS2" : reported pIC50 = 4.95
